Entry source: patent US20080280859A1

test: in vivo; conditions: female, C57BL/6, mouse, po
Give MTD for every item shown.
The reply should contain only the number, in mg/kg.

Reported MTD, molecule C=C1/C(=C\C=C2/CCC[C@]3(C)[C@@H]([C@@H](CCCC(C)(C)O)CCC(=O)C(C)(C)O)CC[C@@H]23)C[C@@H](O)C[C@@H]1O : ____ 0.03

Reported MTD, molecule C=C1/C(=C\C=C2/CCC[C@@]3(C)C2CC[C@@H]3C(CCCC(C)(C)O)CCCC(C)(C)O)CC(O)C[C@@H]1O (some centres unmarked) [Compound 1, reference compound] : ____ 0.003

Reported MTD, molecule CC(C)(O)CCC[C@@H](CCC(=O)C(C)(C)O)[C@H]1CC[C@H]2/C(=C/C=C3C[C@@H](O)C[C@H](O)C3)CCC[C@]12C : ____ 0.03

Reported MTD, molecule [2H]C([2H])([2H])C(O)(CCC[C@@H](CC#CC(O)(C(F)(F)F)C(F)(F)F)C1CCC2/C(=C/C=C3C[C@@H](O)C[C@H](O)C3)CCC[C@@]21C)C([2H])([2H])[2H] (some centres unmarked) : ____ 0.0003

Reported MTD, molecule C=C1/C(=C\C=C2/CCC[C@]3(C)[C@@H]([C@H](CCCC(C)(C)O)CC[C@@H](O)C(C)(C)O)CC[C@@H]23)C[C@@H](O)C[C@@H]1O : ____ 0.03

Reported MTD, molecule C=C1/C(=C\C=C2/CCC[C@]3(C)[C@@H]([C@@H](CCCC(C)(C)O)CC[C@@H](O)C(C)(C)O)CC[C@@H]23)C[C@@H](O)C[C@@H]1O : ____ 0.03

Reported MTD, molecule [2H]C([2H])([2H])C(O)(CCC[C@@H](CC#CC(O)(C(F)(F)F)C(F)(F)F)C1CCC2/C(=C/C=C3/C[C@@H](O)C[C@H](O)C3=C)CCC[C@@]21C)C([2H])([2H])[2H] (some centres unmarked) : ____ 0.0001
